The measured values listed here are drawn from patent US5608143A.

System: 2-2 corn promoter
procedure text: Transient GUS expression assay, 2-2 corn promoter/GUS constructions in transformed rice protoplasts
run conditions: rice protoplasts transformed with pTDS133, compound at 100 μg/l
Consider the following compounds; for each one, report its Assay 3 (induction of GUS activity).
One number for each entry.

Use the examples below as a reference point.
CCCCNC(=O)NS(=O)(=O)c1cnccc1Cl: 5.2
CCCCNC(=O)NS(=O)(=O)c1ccoc1C(=O)OC: 27.3
CC(C)(C)NC(=O)NS(=O)(=O)c1ccc(Cl)nc1Cl: 24.2

Consider now this further compound.
Reported Assay 3 (induction of GUS activity), compound "CN(C)C(=O)c1cccnc1S(=O)(=O)NC(N)=O" : ____ 1.6
